# assaySystem: T1, human EphA4 (binding to human Ephrin A5) (Homo sapiens, UniProt P54764)
# T1 construct: made in house; not restated for the human SEAP-His protein
# T1 sequence (P54764 20-547): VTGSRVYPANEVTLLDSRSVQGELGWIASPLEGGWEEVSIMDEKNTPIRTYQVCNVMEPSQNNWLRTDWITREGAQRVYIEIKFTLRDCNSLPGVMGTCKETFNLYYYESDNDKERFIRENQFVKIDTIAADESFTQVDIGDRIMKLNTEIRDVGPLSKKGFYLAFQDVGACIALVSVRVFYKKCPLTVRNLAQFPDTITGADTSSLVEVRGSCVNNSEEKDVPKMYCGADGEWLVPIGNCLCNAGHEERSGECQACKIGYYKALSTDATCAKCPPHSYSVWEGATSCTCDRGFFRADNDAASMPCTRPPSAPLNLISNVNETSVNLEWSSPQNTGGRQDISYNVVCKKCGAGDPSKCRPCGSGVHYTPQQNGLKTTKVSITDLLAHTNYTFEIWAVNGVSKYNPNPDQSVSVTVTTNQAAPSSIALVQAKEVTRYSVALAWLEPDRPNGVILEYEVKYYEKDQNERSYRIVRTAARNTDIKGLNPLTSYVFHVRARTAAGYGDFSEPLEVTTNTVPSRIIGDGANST
# assayExplanation: Human EphA4-human ligand binding inhibition ELISA of humanized antibodies (biotinylated Ephrin A5-Fc)
# conditionDescription: biotinylated human Ephrin A5-Fc 0.7 nM
# Procedure: Each anti-EphA4 monoclonal humanized antibody obtained in Example 16 was evaluated for its inhibitory activity against the binding between human EphA4 and its human ligand according to the following steps. Each well of a 96-well plate (Nunc) was coated with an anti-alkaline phosphatase antibody (Thermo Fisher Scientific). […] The absorbance at 450 nm was read using a microplate reader (PerkinElmer).
valueKind: IC50 (nM)
Numbers only, in nM.

Solved entries (count: 6):
# molecule, valueKind, unitDescriptor, reportedValue
data = [
    ("141 (antibody, V domains shown, synthetic humanized antibody heavy chain variable region sequence; synthetic humanized antibody light chain variable region sequence) VH: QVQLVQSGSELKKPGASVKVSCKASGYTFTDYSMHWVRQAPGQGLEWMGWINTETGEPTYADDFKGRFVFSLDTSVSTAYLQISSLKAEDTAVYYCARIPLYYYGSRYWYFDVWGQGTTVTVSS VL: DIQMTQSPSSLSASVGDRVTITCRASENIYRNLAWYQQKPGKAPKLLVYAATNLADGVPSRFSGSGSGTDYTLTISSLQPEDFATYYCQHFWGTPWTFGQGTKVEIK", "IC50", "nM", 3),
    ("155 (antibody, V domains shown, synthetic humanized antibody heavy chain variable region sequence; synthetic humanized antibody light chain variable region sequence) VH: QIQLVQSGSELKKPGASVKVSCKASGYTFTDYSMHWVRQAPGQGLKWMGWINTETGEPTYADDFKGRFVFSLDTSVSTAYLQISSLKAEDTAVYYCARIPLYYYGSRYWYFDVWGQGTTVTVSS VL: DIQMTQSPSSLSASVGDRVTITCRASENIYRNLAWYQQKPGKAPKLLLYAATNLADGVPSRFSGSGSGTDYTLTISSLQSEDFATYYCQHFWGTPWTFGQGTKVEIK", "IC50", "nM", 2.4),
    ("142 (antibody, V domains shown, synthetic humanized antibody heavy chain variable region sequence; synthetic humanized antibody light chain variable region sequence) VH: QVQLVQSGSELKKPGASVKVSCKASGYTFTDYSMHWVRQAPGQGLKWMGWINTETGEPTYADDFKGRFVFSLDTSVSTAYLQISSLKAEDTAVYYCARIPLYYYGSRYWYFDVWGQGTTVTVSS VL: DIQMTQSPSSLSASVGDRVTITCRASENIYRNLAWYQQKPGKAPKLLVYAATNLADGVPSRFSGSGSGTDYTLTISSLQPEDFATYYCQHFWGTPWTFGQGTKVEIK", "IC50", "nM", 3.7),
    ("136 (antibody, V domains shown, synthetic humanized antibody heavy chain variable region sequence; synthetic humanized antibody light chain variable region sequence) VH: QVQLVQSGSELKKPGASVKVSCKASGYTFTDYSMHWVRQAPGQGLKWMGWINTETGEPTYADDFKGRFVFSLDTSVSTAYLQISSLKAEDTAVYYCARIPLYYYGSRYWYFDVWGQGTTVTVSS VL: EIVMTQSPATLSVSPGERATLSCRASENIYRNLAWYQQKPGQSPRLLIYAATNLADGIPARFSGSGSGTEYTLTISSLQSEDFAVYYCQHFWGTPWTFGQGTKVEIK", "IC50", "nM", 2.5),
    ("144 (antibody, V domains shown, synthetic humanized antibody heavy chain variable region sequence; synthetic humanized antibody light chain variable region sequence) VH: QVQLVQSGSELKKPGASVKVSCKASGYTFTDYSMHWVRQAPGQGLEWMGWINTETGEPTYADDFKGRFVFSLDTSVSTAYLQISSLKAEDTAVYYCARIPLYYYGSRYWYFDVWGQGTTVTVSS VL: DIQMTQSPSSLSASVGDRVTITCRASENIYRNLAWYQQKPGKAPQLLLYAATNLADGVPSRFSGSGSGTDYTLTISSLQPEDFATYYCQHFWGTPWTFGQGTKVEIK", "IC50", "nM", 3.6),
    ("134 (antibody, V domains shown, synthetic humanized antibody heavy chain variable region sequence; synthetic humanized antibody light chain variable region sequence) VH: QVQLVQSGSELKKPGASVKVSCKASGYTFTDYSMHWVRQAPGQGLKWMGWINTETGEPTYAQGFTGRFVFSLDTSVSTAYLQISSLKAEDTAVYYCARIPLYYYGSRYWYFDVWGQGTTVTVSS VL: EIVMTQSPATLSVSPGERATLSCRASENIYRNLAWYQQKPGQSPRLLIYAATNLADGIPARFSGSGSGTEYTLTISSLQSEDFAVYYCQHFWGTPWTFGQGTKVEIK", "IC50", "nM", 3),
]

--- query ---
Q: Supply recorded IC50 for 83 (antibody, V domains shown, constant regions without entry; synthetic humanized antibody light chain variable region sequence; synthetic humanized antibody heavy chain variable region sequence) VL: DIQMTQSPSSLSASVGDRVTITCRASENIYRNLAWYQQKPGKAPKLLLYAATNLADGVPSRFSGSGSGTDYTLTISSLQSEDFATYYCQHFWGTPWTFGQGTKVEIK VH: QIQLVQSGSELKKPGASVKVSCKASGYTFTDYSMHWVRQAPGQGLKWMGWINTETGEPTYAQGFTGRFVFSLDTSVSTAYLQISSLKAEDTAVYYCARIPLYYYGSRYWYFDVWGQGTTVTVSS here.
Ans: 3.7
